# TESTED SYSTEM: RadH (Floropilus chiversii, UniProt C5H881)
# Construct: recombinant, overproduced in E. coli, purified
# Sequence (C5H881 whole entry): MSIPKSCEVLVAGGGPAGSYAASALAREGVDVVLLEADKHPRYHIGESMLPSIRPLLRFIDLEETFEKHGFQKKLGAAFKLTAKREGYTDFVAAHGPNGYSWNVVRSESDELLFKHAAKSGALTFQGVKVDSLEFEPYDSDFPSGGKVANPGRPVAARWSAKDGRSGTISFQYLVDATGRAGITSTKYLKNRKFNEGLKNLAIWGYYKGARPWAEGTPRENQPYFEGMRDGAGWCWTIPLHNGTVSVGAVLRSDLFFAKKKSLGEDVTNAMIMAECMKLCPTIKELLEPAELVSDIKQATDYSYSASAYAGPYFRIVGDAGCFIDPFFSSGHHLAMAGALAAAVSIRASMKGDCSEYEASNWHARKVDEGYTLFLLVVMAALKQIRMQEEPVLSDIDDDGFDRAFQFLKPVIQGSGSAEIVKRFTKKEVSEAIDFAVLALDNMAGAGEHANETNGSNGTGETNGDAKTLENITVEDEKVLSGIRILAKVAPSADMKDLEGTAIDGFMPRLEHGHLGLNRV
# ASSAY NAME: Michaelis-Menten halogenation kinetics
# Assay type: biochemical
# CONDITION DETAILS: kinetic assay conditions in supplement (Figures S4-S10)
MEASURED METRIC: Km (µM)

>>> number("O=c1cc(C(F)(F)F)c2ccc(O)cc2o1 [compound 10, 10]")
309
>>> number("O=c1ccc2ccc(O)cc2o1 [compound 8, 7-hydroxycoumarin]")
379
>>> number("Oc1ccc2cnccc2c1 [compound 6, 6-hydroxyisoquinoline]")
277
>>> number("Cc1cc(=O)oc2cc(O)ccc12 [compound 11, 11]")
364
>>> number("O=c1c(-c2ccc(O)cc2)coc2cc(O)ccc12 [compound 14, 14]")
281
